Entries and their IC50
target: hP2X3 (human purinergic P2X receptor subtype 3) (Homo sapiens (Human), UniProt P56373); assay: FLIPR calcium assay, hP2X3 expressed in HEK293 cells; assay type: cell-based; conditions: read-out: P2X3 IC50
Sequence (P56373 whole entry): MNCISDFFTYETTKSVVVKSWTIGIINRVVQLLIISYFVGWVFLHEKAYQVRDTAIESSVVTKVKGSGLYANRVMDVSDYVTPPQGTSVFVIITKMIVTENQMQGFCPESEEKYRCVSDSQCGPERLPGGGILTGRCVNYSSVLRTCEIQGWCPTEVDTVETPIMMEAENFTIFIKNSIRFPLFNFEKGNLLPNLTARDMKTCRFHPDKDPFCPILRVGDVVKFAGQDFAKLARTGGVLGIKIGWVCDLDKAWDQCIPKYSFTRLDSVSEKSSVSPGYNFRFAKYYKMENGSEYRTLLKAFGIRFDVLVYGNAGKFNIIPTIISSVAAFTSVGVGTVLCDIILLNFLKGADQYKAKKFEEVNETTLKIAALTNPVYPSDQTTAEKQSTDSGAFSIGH
Measurement label: IC50

> print(dat)
                                   compound  endpoint.value
1  COC(=O)N1CCO[C@@H](Cc2c(-c3c(F)cc(Nc4ccco4)cc3F)nc3cc(C)ccn23)C1    50 to 200 nM
2  COC(=O)N1CCO[C@@H](Cc2c(-c3c(F)cc(-n4ccc(C(=O)O)n4)cc3F)nc3cc(C)ccn23)C1         < 10 nM
3  COC(=O)N1CCO[C@@H](Cc2c(-c3ccc(S(N)(=O)=O)cc3C(F)(F)F)nc3cc(C)ccn23)C1           10 nM
4  CNC(=O)c1cc(F)c(-c2nc3n(c2C[C@H]2CN(C(=O)OC)CCO2)CCC(C)C3)c(F)c1 (stereo partly drawn)         < 10 nM
5  COC(=O)N1CCO[C@@H](Cc2c(-c3c(F)cc(-c4cc[nH]n4)cc3F)nc3cc(F)ccn23)C1    50 to 200 nM
6  COC(=O)N1CCO[C@@H](Cc2c(-c3cnc(-n4cccn4)cc3C)nc3cc(C)ccn23)C1     10 to 50 nM

All values here come from patent US20240034729A9.
